Tested on: SK-OV-3
TEST_NAME: NCI tumour cell line growth inhibition, 48 h
Activity calls are given as the source filed them. No stated cut-off is given here; in the data, active = GI50 up to about 1.1 µM and inactive = higher.
METRIC_NAME: GI50

Example results:
Oc1c(Br)cc(/C=C/c2ccnc(/C=C/c3cc(Br)c(O)c(Br)c3)c2)cc1Br; 34.2 µM (inactive)
Cc1cc(-c2nc3cccc(F)c3s2)ccc1N; > 100 µM (inactive)
Cc1cc(O)cc(O)c1C(=O)O[C@]1(C)C(=O)C=C2C=C(/C=C/C(=O)O)OC=C2C1=O; > 100 µM (inactive)
Nc1n[nH]c(N)n1 [GUANAZOLE]; 3210 µM (inactive)
COc1ccc(C(OCC2OC3(COC(c4ccccc4)(c4ccc(OC)cc4)c4ccc(OC)cc4)C(Oc4nc(=O)ccn43)C2O)(c2ccccc2)c2ccc(OC)cc2)cc1 (stereo not given); > 100 µM (inactive)
CC1=CC2=C(OCO1)C(=O)c1ccccc1C2=O; 13.3 µM (inactive)

q: Quick one: give measured GI50 for "C=CCNc1nc2c(s1)C(=O)c1ccccc1C2=O"
a: 17.9 µM (inactive)

q: Quick one: give measured GI50 for "CSC(SC)=C(C#N)C(=O)Nc1ccc(Cl)cc1"
a: > 100 µM (inactive)

q: Quick one: give measured GI50 for CC(SC(=S)N1CCOCC1)C(=O)Nc1nnc(-c2ccc(Cl)cc2)o1 (stereo not given)
a: 67.3 µM (inactive)

q: Quick one: give measured GI50 for "O=C1Oc2cc3c(c4cccc1c24)O[C@H](c1ccccc1)[C@@H](c1ccccc1)[C@@H]3c1ccc(Cl)cc1"
a: 45.2 µM (inactive)
